# TARGET_OF_ASSAY: human TLR8 (Homo sapiens)
# Construct: host or cells: HEK-Blue cells
# Sequence (Q9NR97 27-1041): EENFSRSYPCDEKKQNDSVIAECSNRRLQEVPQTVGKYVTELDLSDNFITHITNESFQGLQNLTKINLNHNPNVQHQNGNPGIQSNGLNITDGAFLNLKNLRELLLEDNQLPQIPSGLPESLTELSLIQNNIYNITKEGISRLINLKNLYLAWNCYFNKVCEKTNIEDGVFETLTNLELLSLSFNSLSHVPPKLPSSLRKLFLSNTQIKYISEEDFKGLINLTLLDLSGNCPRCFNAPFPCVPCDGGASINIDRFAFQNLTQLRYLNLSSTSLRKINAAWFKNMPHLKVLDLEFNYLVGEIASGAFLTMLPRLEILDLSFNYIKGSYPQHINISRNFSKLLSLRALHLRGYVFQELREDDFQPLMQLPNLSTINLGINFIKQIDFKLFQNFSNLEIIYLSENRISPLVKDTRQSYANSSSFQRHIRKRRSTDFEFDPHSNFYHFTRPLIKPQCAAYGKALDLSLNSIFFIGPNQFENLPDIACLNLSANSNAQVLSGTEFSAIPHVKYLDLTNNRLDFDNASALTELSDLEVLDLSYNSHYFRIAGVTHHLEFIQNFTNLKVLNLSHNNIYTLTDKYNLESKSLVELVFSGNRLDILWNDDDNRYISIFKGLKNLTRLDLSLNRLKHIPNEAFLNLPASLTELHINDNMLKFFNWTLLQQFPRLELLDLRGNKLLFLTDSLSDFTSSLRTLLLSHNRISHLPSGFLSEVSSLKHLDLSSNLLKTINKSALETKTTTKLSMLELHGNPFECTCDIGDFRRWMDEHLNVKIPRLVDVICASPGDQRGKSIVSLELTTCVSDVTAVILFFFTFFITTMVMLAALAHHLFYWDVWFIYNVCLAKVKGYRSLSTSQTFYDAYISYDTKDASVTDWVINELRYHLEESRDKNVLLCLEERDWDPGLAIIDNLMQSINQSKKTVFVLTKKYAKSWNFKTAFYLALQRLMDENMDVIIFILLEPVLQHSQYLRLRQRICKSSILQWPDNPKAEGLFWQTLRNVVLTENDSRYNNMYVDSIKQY
# RUN_DESCRIPTION: TLR8 inhibition reporter assay (HEK-Blue SEAP)
# Assay type: cell-based
# CONDITION_PARAMETERS: HEK-Blue cells overexpressing human TLR8, stimulated with R848 15.9 μM, 22 hour incubation
ENDPOINT: pIC50
Keep it numeric: pIC50 is minus log10 of the concentration in mol/L.

Please provide the recorded pIC50 for Cc1cc(-c2[nH]c3ccc(OC4CCN(C(=O)CN(C)C)CC4)cc3c2C(C)C)cn(C)c1=O , tested on human TLR8 (Homo sapiens).
7.98

Please provide the recorded pIC50 for Cc1c(-c2[nH]c3ccc(OCC4CCN(C(=O)CN(C)C)CC4)cc3c2C(C)C)cn2cnnc2c1C , tested on human TLR8 (Homo sapiens).
7.24

Please provide the recorded pIC50 for COc1ccc(-c2[nH]c3ccc(OCC(=O)NC[C@H]4CCNC4)cc3c2C(C)C)cc1OC , tested on human TLR8 (Homo sapiens).
6.75

Please provide the recorded pIC50 for Cc1cc(-c2[nH]c3ccc(OC4CCN(CC(=O)N(C)C)CC4)cc3c2C(C)C)cn2ncnc12 , tested on human TLR8 (Homo sapiens).
8.54

Please provide the recorded pIC50 for Cc1cc(-c2[nH]c3ccc(O[C@@H]4CCNC4)cc3c2C(C)C)ccn1 , tested on human TLR8 (Homo sapiens).
8.15

Please provide the recorded pIC50 for CCc1c(-c2ccc(OC)c(OC)c2)[nH]c2ccc(OCC3CCNCC3)cc12 , tested on human TLR8 (Homo sapiens).
7.64

Please provide the recorded pIC50 for Cc1cc(-c2[nH]c3ccc(OCC4CCN(C)CC4)cc3c2C(C)C)cc(C)n1 , tested on human TLR8 (Homo sapiens).
8.59

Please provide the recorded pIC50 for Cc1cc(-c2[nH]c3ccc(OCC4CCCNC4)cc3c2C(C)C)cc(C)n1 (centres unmarked) , tested on human TLR8 (Homo sapiens).
8.33

Please provide the recorded pIC50 for COc1ccc(-c2[nH]c3ccc(OCC(=O)NCCN)cc3c2C(C)C)cc1OC , tested on human TLR8 (Homo sapiens).
7.44

Please provide the recorded pIC50 for Cc1cc(-c2[nH]c3ccc(OCC4CN(C)C4)cc3c2C(C)C)cn2ncnc12 , tested on human TLR8 (Homo sapiens).
8.17

Please provide the recorded pIC50 for CCc1c(-c2ccnc(C)c2)[nH]c2ccc(OCCN3CCCC3)cc12 , tested on human TLR8 (Homo sapiens).
7.29

Please provide the recorded pIC50 for Cc1cc(-c2[nH]c3ccc(OCC4CCN(C5CCOCC5)CC4)cc3c2C(C)C)cn2ncnc12 , tested on human TLR8 (Homo sapiens).
8.85

Please provide the recorded pIC50 for CNC(=O)CN1CCC(COc2ccc3[nH]c(-c4cc(C)c5ncnn5c4)c(C(C)C)c3c2)CC1 , tested on human TLR8 (Homo sapiens).
8.12

Please provide the recorded pIC50 for Cc1c(-c2[nH]c3ccc(OC4CCN(C(=O)CN(C)C)CC4)cc3c2C(C)C)cn(C)c(=O)c1C , tested on human TLR8 (Homo sapiens).
7.79

Please provide the recorded pIC50 for Cc1cc(-c2[nH]c3ccc(OCC4CCN(C(C)C)CC4)cc3c2C(C)C)cn(C)c1=O , tested on human TLR8 (Homo sapiens).
8.62

Please provide the recorded pIC50 for Cc1c(-c2[nH]c3ccc(OCC4CN(C)C4)cc3c2C(C)C)cn2cnnc2c1C , tested on human TLR8 (Homo sapiens).
6.36

Please provide the recorded pIC50 for COc1ccc(-c2[nH]c3ccc(OC4CCNCC4)cc3c2C(C)C)cc1OC , tested on human TLR8 (Homo sapiens).
7.82

----------
# TARGET_OF_ASSAY: human TLR8 (Homo sapiens, UniProt Q9NR97)
# RUN_DESCRIPTION: TLR8 inhibition reporter assay (HEK-Blue SEAP)
# CONDITION_PARAMETERS: HEK-Blue cells overexpressing human TLR8, stimulated with R848 15.9 μM, 22 hour incubation
# From the text: TLR7/8/9 Inhibition Reporter Assays HEK-Blue™-cells (Invivogen) overexpressing human TLR7, TLR8 or TLR9 receptors were used for screening inhibitors of these receptors using an inducible SEAP (secreted embryonic alkaline phosphatase) reporter gene under the control of the IFN-β minimal promoter fused to five NF-κB and AP-1-binding sites. […]
Provide the reported IC50 of each item.
Quick note: give the figure in nM, leave out the unit.

For the molecule shown here, Cc1cc(-c2[nH]c3ccc(OCCN4CCCC(F)C4)cc3c2C(C)C)cn2ncnc12 (stereo not shown) [Example 4] , give the reported IC50.
15.4

For the molecule shown here, CCc1c(-c2ccnc(C)c2)[nH]c2ccc(OCC3CCN(C)CC3)cc12 [Example 183] , give the reported IC50.
12

For the molecule shown here, Cc1cc(-c2[nH]c3ccc(OC4CCCN(CC(=O)N(C)C)C4)cc3c2C(C)C)cn(C)c1=O (stereo not shown) [Example 84] , give the reported IC50.
2.9

For the molecule shown here, CNCCOc1ccc2[nH]c(-c3ccnc(C)c3)c(C(C)C)c2c1 [Example 172] , give the reported IC50.
12.7

----------
# TARGET_OF_ASSAY: human TLR9 (Homo sapiens)
# Sequence (Q9NR96 26-1032): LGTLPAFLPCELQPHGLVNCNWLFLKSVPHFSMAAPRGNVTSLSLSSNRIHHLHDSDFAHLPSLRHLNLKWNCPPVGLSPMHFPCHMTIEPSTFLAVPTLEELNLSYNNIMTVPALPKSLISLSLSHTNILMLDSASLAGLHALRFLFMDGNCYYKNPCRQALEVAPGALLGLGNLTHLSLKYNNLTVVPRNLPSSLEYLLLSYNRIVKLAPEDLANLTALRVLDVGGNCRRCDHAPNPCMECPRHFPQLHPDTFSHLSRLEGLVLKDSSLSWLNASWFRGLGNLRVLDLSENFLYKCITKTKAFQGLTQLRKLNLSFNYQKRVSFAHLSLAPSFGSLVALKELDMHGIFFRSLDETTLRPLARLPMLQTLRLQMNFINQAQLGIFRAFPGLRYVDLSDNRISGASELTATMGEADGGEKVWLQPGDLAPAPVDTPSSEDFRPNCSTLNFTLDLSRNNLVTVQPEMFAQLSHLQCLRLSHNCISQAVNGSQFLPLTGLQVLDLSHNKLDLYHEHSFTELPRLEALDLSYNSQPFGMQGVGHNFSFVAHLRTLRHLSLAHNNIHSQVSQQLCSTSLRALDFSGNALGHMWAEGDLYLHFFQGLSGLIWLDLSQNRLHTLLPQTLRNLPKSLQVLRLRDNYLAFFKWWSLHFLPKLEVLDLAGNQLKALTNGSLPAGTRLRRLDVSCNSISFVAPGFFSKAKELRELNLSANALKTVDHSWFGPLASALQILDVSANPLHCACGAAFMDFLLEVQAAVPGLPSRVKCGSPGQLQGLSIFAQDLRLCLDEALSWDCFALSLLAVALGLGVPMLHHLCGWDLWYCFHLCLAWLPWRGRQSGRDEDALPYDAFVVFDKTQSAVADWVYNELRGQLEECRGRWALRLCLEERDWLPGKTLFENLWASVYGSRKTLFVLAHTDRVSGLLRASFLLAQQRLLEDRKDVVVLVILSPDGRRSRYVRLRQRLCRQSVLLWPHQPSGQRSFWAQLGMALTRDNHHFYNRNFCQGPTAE
# RUN_DESCRIPTION: TLR9 inhibition reporter assay (HEK-Blue SEAP)
# CONDITION_PARAMETERS: HEK-Blue cells overexpressing human TLR9, stimulated with ODN2006 5 nM, 22 hour incubation
ENDPOINT: pIC50
Keep it numeric: pIC50 is minus log10 of the concentration in mol/L.

For the molecule shown here, CCc1c(-c2ccnc(C)c2)[nH]c2ccc(OC3CCN(C(C)C)C3)cc12 (stereo not shown) [Example 190] , give the reported pIC50.
5.91

For the molecule shown here, COc1ccc(-c2[nH]c3ccc(OCC(=O)N[C@@H]4CCNC4)cc3c2C(C)C)cc1OC [Example 135] , give the reported pIC50.
5.74

For the molecule shown here, CNC(=O)CN1CCC(Oc2ccc3[nH]c(-c4cc(C)c5ncnn5c4)c(C(C)C)c3c2)CC1 [Example 114] , give the reported pIC50.
4.50

For the molecule shown here, Cc1c(-c2[nH]c3ccc(OC4CCN(C(C)C)CC4)cc3c2C(C)C)cn(C)c(=O)c1Cl [Example 45] , give the reported pIC50.
5.66

For the molecule shown here, Cc1cc(-c2[nH]c3ccc(OC4CCN(C5CCOCC5)CC4)cc3c2C(C)C)cn2ncnc12 [Example 68] , give the reported pIC50.
5.64

For the molecule shown here, Cc1cc(-c2[nH]c3ccc(O[C@@H]4CCN(C)C4)cc3c2C(C)C)ccn1 [Example 193] , give the reported pIC50.
6.05

For the molecule shown here, Cc1cc(-c2[nH]c3ccc(OC4CCC(OC5CCNCC5)CC4)cc3c2C(C)C)ccn1 (stereo not shown) [Example 185] , give the reported pIC50.
5.52

For the molecule shown here, CCCN1CCC(Oc2ccc3[nH]c(-c4cc(OC)c5ncnn5c4)c(C(C)C)c3c2)CC1 [Example 67] , give the reported pIC50.
5.98

For the molecule shown here, Cc1c(-c2[nH]c3ccc(OC4CCN(CC(=O)N(C)C)CC4)cc3c2C(C)C)cn2cnnc2c1C [Example 90] , give the reported pIC50.
4.89

For the molecule shown here, Cc1c(-c2[nH]c3ccc(OCC4CN(C(=O)CN(C)C)C4)cc3c2C(C)C)cn2cnnc2c1C [Example 108] , give the reported pIC50.
6.07

For the molecule shown here, COc1ccc(-c2[nH]c3ccc(OCC(=O)NC4CN5CCC4CC5)cc3c2C(C)C)cc1OC (stereo not shown) [Example 125] , give the reported pIC50.
5.20

For the molecule shown here, Cc1cc(-c2[nH]c3ccc(OC4CCNCC4)cc3c2C(C)C)cn(C)c1=O [Example 11] , give the reported pIC50.
5.72

For the molecule shown here, CNC(=O)CN1CCC(COc2ccc3[nH]c(-c4cc(C)c(=O)n(C)c4)c(C(C)C)c3c2)CC1 [Example 111] , give the reported pIC50.
4.33

For the molecule shown here, Cc1cc(-c2[nH]c3ccc(OCC(=O)N4CCCC5(CNC5)C4)cc3c2C(C)C)ccn1 [Example 140] , give the reported pIC50.
6.05

For the molecule shown here, Cc1cc(-c2[nH]c3ccc(O[C@H]4CCCN(C(=O)CN(C)C)C4)cc3c2C(C)C)cn2ncnc12 [Example 99] , give the reported pIC50.
5.31
